# assay explanation: Pharmacokinetic parameters in SD rats, IV and PO
# test context: Sprague-Dawley (SD), rat, in vivo, intravenous, read-out: t1/2 IV (converted)
property label: half-life (h)

>  <molecule>
CC(C)Oc1cc2c(=O)c3c4ccc(C#N)cc4[nH]c3n(C(C)C)c2c(F)c1N1CCN(C)CC1 [ALK-86]

>  <half-life, h>
5.23

$$$$
>  <molecule>
COc1cc2c(=O)c3c4ccc(C#N)cc4[nH]c3n(C(C)C)c2c(F)c1C1CCN(C)CC1 [CJ-2212]

>  <half-life, h>
4.78

$$$$
>  <molecule>
CCOc1cc2c(=O)c3c4ccc(C#N)cc4[nH]c3n(C(C)C)c2c(F)c1N1CCN(C)CC1 [ALK-83]

>  <half-life, h>
5.24

$$$$
>  <molecule>
COc1cc2c(=O)c3c4ccc(C#N)cc4[nH]c3n(C(C)C)c2c(F)c1C1CCN(C(C)C)CC1 [CJ-2225]

>  <half-life, h>
4.54

$$$$
>  <molecule>
COc1cc2c(=O)c3c4ccc(C#N)cc4[nH]c3n(C(C)C)c2c(F)c1C1CCN(C2CCOCC2)CC1 [CJ-2226]

>  <half-life, h>
4.37

$$$$
>  <molecule>
COc1cc2c(=O)c3c4ccc(C#N)cc4[nH]c3n(C(C)C)c2c(F)c1C1CCN(C2COC2)CC1 [CJ-2224]

>  <half-life, h>
4.71

$$$$
